All figures here come from ChEMBL document CHEMBL3988442.

TARGET_OF_ASSAY: Chromo domain-containing protein 1 (Saccharomyces cerevisiae (strain ATCC 204508 / S288c) (Baker's yeast))
EXPERIMENT_SUMMARY: ScCHD-1 Enzyme Inhibition Assay
Type: functional
Set-up: scale not given: in the data most compounds retested in dose-response had high values
RUN_PARAMETERS: 30 µM
MEASURED_METRIC: Percent Effect (%)
Use % as the unit, but write only the number.

What does the data say about its Percent Effect? Entry: CN1CCN(Cc2cnc3n2CCN(Cc2cccs2)C3)CC1 -0.68

# input compound: O=C(NCCn1ccc(-c2ccccn2)n1)C1CC1 ; wanted: its Percent Effect -0.508

# input compound: Cc1cc(C(=O)N2CCCCC2C)ccc1NCC(=O)N1CCOCC1 (stereo unspecified) ; wanted: its Percent Effect -5.86

Param item = COc1ccc(C(=O)N2CCC(Nc3ccc(C)nn3)CC2)c(F)c1 ; retrieve measured Percent Effect. -10.7

Name the recorded Percent Effect for Cc1nnc(C(C)N2CCN(Cc3ccc4c(c3)OCO4)CC2)o1 (stereo unspecified) . 2.83

I would be grateful if you could share the reported Percent Effect for Cn1cc(C2CCCN2C(=O)c2ccc(Br)o2)cn1 (stereo unspecified) . 1.07

Please report the recorded Percent Effect for CC(C)c1nc(N2CC(N3CCCCC3C)C2)c2cnn(C)c2n1 (stereo unspecified) . -2.78

Query: Percent Effect; subject: O=C(c1cnco1)N1C[C@@H]2CC[C@H](Oc3ccccc3F)[C@@H]2C1 -6.6

Which Percent Effect reading was recorded for the compound CNC(=O)c1ccc(CN2CCC(N(C)Cc3noc(C)n3)C2)cc1 (stereo unspecified) ? -19.2

Form field: reported Percent Effect of CCn1nc(C)c2nc(C(C)C)nc(N3CCCCC3)c21 -0.27

Reported Percent Effect for Cc1ncsc1CN1C[C@@H]2COC[C@]2(C(=O)NCC2CC2)C1 : what is it? 10.8
